All values here come from ChEMBL document CHEMBL2417377.

Kindly state inhibition for each of the entries shown.
Assay: Inhibition of PITSLRE in human PC3 cell lysates at 30 uM using desthiobiotin-tagged ATP probe AX9989 followed by trypsinization by LC/MS analysis
Assay type: cell-free
Conditions: PC-3

Input: Which measured inhibition value corresponds to "c1ccc2c(c1)nc(NC1CCCCC1)c1nccn12" ?
Output: < 35%

Input: Which measured inhibition value corresponds to "c1ccc(CCNc2nc3ccccc3n3ccnc23)cc1" ?
Output: < 35%

Input: Which measured inhibition value corresponds to "c1ccc(CNc2nc3ccccc3n3ccnc23)cc1" ?
Output: < 35%

Input: Which measured inhibition value corresponds to "O[C@H]1CC[C@H](Nc2nc3ccccc3n3ccnc23)CC1" ?
Output: 82.4%
